Reference source: paper PMC6180126

- study_target: EcRecQ catalytic core (Escherichia coli, UniProt P15043 1-523)
- method_notes: fluorescence anisotropy; apparent Kd; 1 mM Mg2+; 20 mM Tris-HCl pH 8.0, 100 mM NaCl, 1 mM MgCl2, 1 mM 2-mercaptoethanol, 0.1 mg/mL BSA, 4% glycerol; 5 nM DNA, 30 min at room temperature, read at 25 C (G4 folded in 10 mM Tris-HCl pH 8.0, 100 mM KCl)
- settings: protein: recombinant; tags: N-terminal His tag removed (thrombin); label: 3' FAM; intramolecular G4 (folded in 100 mM KCl) with 12 nt 3' ssDNA tail
experimental_endpoint: Kd (nM)
The figure you give is taken to be in nM; do not add the unit.

Input line: Determine its reported Kd: TTAGGGTTAGGGTTAGGGTTAGGGTCGGTGCCTTACT (structured_DNA) [F-G4]
Output line: 1000
